In this section we review reported viability at 28.5 h, 10 µM values for a set of compounds.
test: in vitro; conditions: human, hela cells, % viability
Please state the figure in %; there is no need to write the unit.

NS(=O)(=O)c1ccc(NC(=O)C2CCCN(S(=O)(=O)c3ccc(Cl)cc3)C2)cc1 (centres unmarked); 91.7

Exercise: Quick check: viability at 28.5 h, 10 µM of `O=C1CCC[C@]2(CN(Cc3ccccc3)C[C@H]2c2ccncc2)N1` ?
Key: 84.5

Exercise: Thanks! And `O=C(CN1C(=O)c2ccccc2C1=O)Nc1cccc2cccnc12` ?
Key: 91.2

Exercise: What do we get for NC(=O)CCN1CCCC2(CCN(C(=O)Cc3c[nH]c4ccccc34)C2)C1 (centres unmarked) ?
Key: 106

Exercise: Next compound: `Fc1ccc(OCc2nn3cnnc3s2)cc1`
Key: 102

Exercise: Lookup `O=C(CSc1ncnc2c1oc1ccccc12)NC1CCCC1`
Key: 99.4

Exercise: One more compound: `O=c1[nH]c2ncc(-c3cccc4ncccc34)nc2n1C1CCCCC1`
Key: 109

Exercise: Now try Cc1ccc(C2CCCN2C(=O)c2cccn(CC(=O)Nc3ccc(F)cc3)c2=O)cc1C (centres unmarked) .
Key: 90.1

Exercise: What do we get for `O=C(c1cc[nH]n1)N1CCC(c2cc3ccccc3cn2)CC1` ?
Key: 91.7

Exercise: What do you get for `Cc1cccc(CNc2nccnc2-c2ccncc2)c1` ?
Key: 99.3

Exercise: Another compound to look at: `CC(=O)Nc1ccc(C(=O)CSc2nc(-c3ccccc3)cs2)cc1`
Key: 101

Exercise: Now the same for `CC(=O)Nc1cccc(-c2ccc(Nc3cccnc3)nc2)c1`
Key: 96.7

Exercise: One more compound: `Cc1ccc2oc(-c3ccc(C)c(NC(=O)c4cc([N+](=O)[O-])ccc4Cl)c3)nc2c1`
Key: 94.5

Exercise: Please answer likewise for `O=c1[nH]c2ncc(-c3ccsc3)nc2n1Cc1ccccc1`
Key: 96.7

Exercise: Let us now turn to `NNC(=O)Nc1ccc(Cc2ccc(NC(=O)NN)cc2)cc1`
Key: 88.5
